Tested on: OVCAR-5 ovarian
assay.summary: NCI-60 one-dose screen, 48 h
measurement.conditions: 10 µM unless noted
About 83,000 compounds went through this panel and 20% of them were active in at least one assay; those are over-represented in the sample as a whole. Activity calls are given as the source filed them. Rule for the calls: active = growth percent below 10; inactive = the rest.
Labels: true (1) = active, false (0) = inactive

compound | assigned.label
C[C@@H]1N=C(c2ccc(Cl)cc2Cl)Nc2nc3ccccn3c2C1=O | false (0)
CCOC(=O)c1cc(C(=O)c2cc(OC)cc(OC)c2)n2ccccc12 | false (0)
COc1ccc(-c2nc(SCCC(C)C)nc(N/N=C(/C)c3ccc(N)cc3)c2C#N)cc1 | false (0)
Cc1cc(C)n(C(=O)CSc2nc3sc4c(c3c(=O)n2-c2ccccc2)CCCCC4)n1 | false (0)
CC/C(=C(/c1ccc(Cl)cc1)c1ccc(OCCCN(C)C)cc1)c1ccc(OC)cc1 | false (0)
NCCCCCNc1noc(Cc2c[nH]c3cc(Br)ccc23)n1 | false (0)
COc1ccc(CNc2c3ccccc3nc3ccccc23)cc1OC | false (0)
O=c1oc2ccccc2cc1-c1nn(-c2ccccc2)cc1/C=N/Nc1nc(-c2ccccc2)c(N=Nc2ccccc2)s1 | false (0)
C=C(C)[C@@H]1CC[C@]2(C#N)CC[C@]3(C)[C@H](CC[C@@H]4[C@@]5(C)CCCNC(C)(C)[C@@H]5CC[C@]43C)[C@@H]12 | false (0)
Cc1nc2ccccc2c(/C=C/c2ccc(Cl)cc2)c1C(=O)/C=C/c1ccccc1 | true (1)
Cc1ccc(C2(C)NC(=O)N(CC(=O)Nc3cccc(C)c3)C2=O)cc1 (stereo unspecified) | false (0)
COc1ccc(NC(=O)c2ccc(Cl)cc2Cl)cc1 | false (0)
Cc1cc2c(c(C)n1)CN(C(=O)Nc1nc(-c3cncs3)ccc1N)C2 | false (0)
CN1CCN(Cc2ccc(NC(=O)c3cncc(C#Cc4c(N)ncc5ccccc45)c3)cc2C(F)(F)F)CC1 | true (1)
O=C1NCCN1/N=C/c1c(Cl)n(Cc2ccc(Cl)cc2)c2ccccc12 | false (0)
O=C(/C=C/c1ccc(Cl)cc1)c1ccc(Nc2ccnc3cc(Cl)ccc23)cc1 | false (0)
CCN1CCN(C(=O)[C@]23CC[C@@H](C)[C@H](C)[C@@H]2C2=CC[C@@H]4[C@@]5(C)C/C(=C/c6ccncc6)C(=O)C(C)(C)[C@@H]5CC[C@@]4(C)[C@]2(C)CC3)CC1 | false (0)
O=C(CSc1nnc(-c2ccc(Cl)c(Cl)c2)n1-c1ccccc1)Nc1ccc(C(=O)/C=C/c2ccc(Cl)cc2)cc1 | false (0)
CCCn1cnc2c(c1=N)C(c1ccc(Cl)cc1)c1sc3c(F)cccc3c1O2 (stereo unspecified) | false (0)
CC(=O)c1ccc(Nc2nccc(-c3ccc(Cl)cc3)n2)cc1 | false (0)
CN(CCNc1ccc(C(=N)N)cc1)c1ccc(C(=N)N)cc1 | false (0)
